For each entry below, report its pKd value.
Target: T1, recombinant human IL-23 (human, UniProt P29460 23-328)
T1 construct: also called Human recombinant IL-23
T1 sequence 1: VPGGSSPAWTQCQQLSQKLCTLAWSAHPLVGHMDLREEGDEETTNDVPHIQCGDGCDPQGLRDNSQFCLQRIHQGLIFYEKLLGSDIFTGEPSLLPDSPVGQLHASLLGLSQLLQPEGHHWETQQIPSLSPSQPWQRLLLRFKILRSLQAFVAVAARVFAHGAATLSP
T1 sequence 2: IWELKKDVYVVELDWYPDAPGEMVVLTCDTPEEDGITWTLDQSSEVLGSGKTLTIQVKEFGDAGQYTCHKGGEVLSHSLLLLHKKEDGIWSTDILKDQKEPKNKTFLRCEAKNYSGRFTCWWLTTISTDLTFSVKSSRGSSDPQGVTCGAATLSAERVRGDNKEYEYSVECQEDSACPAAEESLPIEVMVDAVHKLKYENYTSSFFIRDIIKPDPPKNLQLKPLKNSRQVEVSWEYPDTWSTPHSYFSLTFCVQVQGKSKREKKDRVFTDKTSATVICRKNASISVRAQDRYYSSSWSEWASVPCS
Assay: BLI, Fortebio Octet; hybridoma-derived antibody
One number for each entry, as −log10 of the molar value.

binder	valueReported
18D3 (antibody, V domains shown, Mouse monoclonal antibody from hybridoma; also called 18D3vk; 18D3vh) VH: EVQLQQSGPELVKPGASVKMSCKASGYTFTRYLIHWVKQKPGQGLEWIGYINPYNDGTKYNEKFKGKATLTSDKSSSTAYMELSSLTSEDSAVYYCTSNWDLDYWGQGTTLTVSS VL: DIVMTQSPATLSVTPGDRVSLSCRASQSISDYLYWYQQKSHESPRLLIKFASQSISGIPSRFTGSGSGSDFTLSIDSVEPDDVGVFFCQNGHSFPFTFGGGTKLEIK	11.17

# next binder below
Query: Name the reported pKd value associated with the binder 24A5 (antibody, V domains shown, Mouse monoclonal antibody from hybridoma; also called 24A54vk; 24A5vh) VH: EVQLQQSGPELVKPGASVKMSCKASGYTFTTSIMHWVKQKPGQGLEWIGYINPYDDVTKYNEKFKGKATLTSDKSSSTAYMELSSLTSEDSAVYYCVRRWDEAYWGQGTLVTVSA VL: DIVMTQSPATLSVTPGNRVSLSCRASQSISDYLHWYQQKSHESPRLLIKYASQSISGIPSRFSGSGSGSNFTLSINSVEPEDVGVYYCQNGHSFPFTFGSGTKLEIK
Response: 10.65

The origin of these recorded values is patent US20210317201A1.
